# tested_system: T1, human MSLN-FL-his protein (human, UniProt Q13421 296-580)
# T1 construct: made in HEK293E cells, purified on nickel column; also called hMSLN-FL-his; human MSLN full-length protein; not shown: His tag
# T1 sequence (Q13421 other isoform, or with tags, fused parts or gaps): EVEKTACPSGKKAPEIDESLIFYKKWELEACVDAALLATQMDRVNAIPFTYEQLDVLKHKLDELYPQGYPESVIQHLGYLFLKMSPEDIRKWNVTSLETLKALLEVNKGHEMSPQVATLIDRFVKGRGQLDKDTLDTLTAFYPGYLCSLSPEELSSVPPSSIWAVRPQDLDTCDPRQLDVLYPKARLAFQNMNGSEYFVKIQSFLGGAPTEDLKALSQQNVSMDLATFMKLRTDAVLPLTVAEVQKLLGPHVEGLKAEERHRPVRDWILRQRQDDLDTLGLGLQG
# assay_info: competitive ELISA; row F8-28.23; further: test concentration or dose not given here
readout_kind: competition rate (%)

binder: S009-F8-33.12 (antibody, human IgG1, kappa, V domains shown, human-murine chimeric antibody, human IgG1/kappa constant regions) VH: EVQLQQSGAELVKPGASVKLSCTASAFNIKDYYMHWVKQRTEQGLEWIGRIDPEDGETKYAPKFQGKATITADTSSNTAYLQLSSLTSEDTAVYYCASGSGTGAMDYWGQGTSVTVSS VL: DIVMTQSQKFMSTSVGDRVSITCKASQNVRTAVGWYQQKPGQSPKALIYLASNRHTGVPDRFTGSGSGTDFTLTISNVQSEDLADYFCLQHWNSPYTFGGGTKLVIKR
readout_kind: competition rate
assay_result: 102
